Kindly state inhibition for each of the entries shown.
assayed.system: Aldo-keto reductase family 1 member B1 (Bos taurus)
test.name: In vitro inhibition of aldose reductase from the partially purified bovine lens at 10e-7 M concentration
Please state the figure in %; there is no need to write the unit.

Specify measured inhibition for CC(C)Sc1nc(C(C)(C)C)nc(OCC(=O)O)c1C#N .
89

Name the recorded inhibition of the item N#Cc1c(-c2ccccc2)nc(-c2cccc3c(Br)cccc23)n(CC(=O)O)c1=O in your answer.
22

Find the measured inhibition of CSc1nc(C(C)(C)C)nc(OCC(=O)O)c1C#N and report it.
82

Using the record for N#Cc1c(Cc2cccc3ccccc23)nc(-c2cccc3c(Br)cccc23)n(CC(=O)O)c1=O , state its measured inhibition.
46

Give inhibition for the following compound: CC(C)(C)c1nc(OCC(=O)O)c(C#N)c(SCc2ccccc2)n1
82

Please indicate inhibition recorded for Cc1nc(N2CCN(Cc3ccccc3)CC2)c(C#N)c(=O)n1CC(=O)O
64

// Input: CC(C)Sc1nc(C(C)C)n(CC(=O)O)c(=O)c1C#N . Output its inhibition only.
91

For the compound Cc1nc(-c2ccccc2)nc(OCC(=O)O)c1C#N , report inhibition.
79

Supply reported inhibition belonging to this compound: CSc1nc(-c2ccccc2)nc(OCC(=O)O)c1C#N
75

Please look at this compound and report its inhibition: CSc1nc(C(C)(C)C)nc(OCC(=O)O)c1C(N)=O
10

# return recorded inhibition for input CC(C)(C)c1nc(OCC(=O)O)c(C#N)c(SCc2ccc(Br)cc2)n1
95

Data credit: ChEMBL document CHEMBL1124992
